tested-system: Recombinant human PARP1 protein (Homo sapiens, UniProt P09874)
Sequence (P09874 whole entry): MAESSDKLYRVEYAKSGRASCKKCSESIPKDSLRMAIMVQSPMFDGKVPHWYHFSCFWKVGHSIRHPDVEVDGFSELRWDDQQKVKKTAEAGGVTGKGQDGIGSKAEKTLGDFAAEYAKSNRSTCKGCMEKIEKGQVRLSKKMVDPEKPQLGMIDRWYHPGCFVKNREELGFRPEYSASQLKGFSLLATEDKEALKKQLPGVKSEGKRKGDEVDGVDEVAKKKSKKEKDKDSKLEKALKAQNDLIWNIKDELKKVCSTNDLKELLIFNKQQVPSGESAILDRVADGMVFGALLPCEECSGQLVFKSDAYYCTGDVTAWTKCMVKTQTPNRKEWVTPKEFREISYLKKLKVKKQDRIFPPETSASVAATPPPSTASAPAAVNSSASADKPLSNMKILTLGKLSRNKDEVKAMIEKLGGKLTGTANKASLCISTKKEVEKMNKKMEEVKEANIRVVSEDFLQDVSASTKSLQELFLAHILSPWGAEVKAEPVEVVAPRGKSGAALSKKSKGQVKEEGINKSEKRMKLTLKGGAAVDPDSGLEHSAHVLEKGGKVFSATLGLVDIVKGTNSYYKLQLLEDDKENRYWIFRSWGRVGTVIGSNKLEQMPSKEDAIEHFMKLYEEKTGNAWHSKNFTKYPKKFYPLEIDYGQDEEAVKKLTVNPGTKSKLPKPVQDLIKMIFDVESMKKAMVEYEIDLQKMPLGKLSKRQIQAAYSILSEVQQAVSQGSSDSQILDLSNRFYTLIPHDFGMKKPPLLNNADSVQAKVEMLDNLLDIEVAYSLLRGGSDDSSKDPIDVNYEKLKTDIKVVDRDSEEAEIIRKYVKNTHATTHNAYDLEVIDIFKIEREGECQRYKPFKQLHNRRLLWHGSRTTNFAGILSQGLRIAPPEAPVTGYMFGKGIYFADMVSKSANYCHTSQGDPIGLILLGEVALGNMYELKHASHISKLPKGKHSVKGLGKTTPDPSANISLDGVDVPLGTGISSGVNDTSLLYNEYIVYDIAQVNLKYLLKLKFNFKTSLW
assay-text: biochemical
pIC50: −log10 of the molar value.
endpoint: pIC50

Here are 2 compounds together with their reported answers.
CNC(=O)c1ccc(N2CCN(Cc3ccc4c(c3F)NC(=O)N3C[C@@H](C)N=C43)CC2)c(F)n1 ... 8.82
CNC(=O)c1ccc(N2CCN(Cc3ccc4c(c3F)NC(=O)N3CC5(CC5)N=C43)CC2)c(Cl)n1 ... 9.32

1: CNC(=O)c1ccc(N2CCN(Cc3ccc4c(c3F)NC(=O)N3C4=NC[C@@H]3C)CC2)c(F)n1
2: CNC(=O)c1ccc(N2CCN(Cc3ccc4c(c3F)NC(=O)N3CC(C)CN=C43)CC2)c(F)n1 (stereo not shown)
3: CNC(=O)c1ccc(N2CCN(Cc3ccc4c(c3)NC(=O)N3CCN=C43)CC2)c(F)n1
Incoming: Order the records so the highest pIC50 appears first and the lowest last. Give the labels in the order requested.
Outgoing: 3, 1, 2

P: CNC(=O)c1ccc(N2CCN(C(C)c3ccc4c([nH]c(=O)c5ccnn54)c3F)CC2)c(F)n1 (stereo not shown)
Q: CNC(=O)c1ccc(N2CCN(Cc3ccc4c(c3F)NC(=O)N3C[C@@H](C)N=C43)CC2)c(C(F)F)n1
Incoming: Returns: the argument ( P or Q ) having the larger pIC50. Reply briefly: the label of your chosen item.
Outgoing: Q

====

assay-text: Preliminary pharmacokinetic test in mice
Type: in vivo
reported-conditions: male, ICR, iv; mouse plasma, i.v. 1 mg/kg
endpoint: clearance (mL/min/kg)
Reply with just the number (in mL/min/kg).

Here are 3 compounds together with their reported answers.
CNC(=O)c1ccc(N2CCN(Cc3ccc4c(c3F)NC(=O)N3CC(F)(F)CN=C43)CC2)c(C)n1 [Compound 160] ... 1.6
CNC(=O)c1ccc(N2CCN(Cc3ccc4c(c3F)NC(=O)N3C[C@@H](C)N=C43)CC2)c(Cl)n1 [Compound 154] ... 2.3
CNC(=O)c1ccc(N2CCN(Cc3ccc4c(c3F)NC(=O)N3CC5(CC5)N=C43)CC2)c(Cl)n1 [Compound 158] ... 5.5

Incoming: What value of measured clearance is listed for CNC(=O)c1ccc(N2CCN(Cc3ccc4c(c3F)NC(=O)N3C[C@@H](C)N=C43)CC2)c(F)n1 [Compound 132] ?
Outgoing: 2.8

Incoming: What value of measured clearance is listed for CNC(=O)c1ccc(N2CCN(Cc3ccc4c(c3F)NC(=O)N3CCCN=C43)CC2)c(Cl)n1 [Compound 141] ?
Outgoing: 5.5

Incoming: What value of measured clearance is listed for CNC(=O)c1ccc(N2CCN(Cc3ccc4c(c3F)NC(=O)N3CCCN=C43)CC2)c(F)n1 [Compound 139] ?
Outgoing: 5.9

====

assay-text: Preliminary pharmacokinetic test in mice
Type: in vivo
reported-conditions: male, ICR, plasma, oral; mouse, p.o. 5 mg/kg versus i.v. 1 mg/kg
endpoint: bioavailability (%)
Reply with just the number (in %).

Here are 5 compounds together with their reported answers.
CNC(=O)c1ccc(N2CCN(Cc3ccc4c(c3F)NC(=O)N3C[C@@H](C)N=C43)CC2)c(Cl)n1 [Compound 154] ... 62.1
CNC(=O)c1ccc(N2CCN(Cc3ccc4c(c3F)NC(=O)N3CC5(CC5)N=C43)CC2)c(Cl)n1 [Compound 158] ... 108
CNC(=O)c1ccc(N2CCN(Cc3ccc4c(c3F)NC(=O)N3CCCN=C43)CC2)c(F)n1 [Compound 139] ... 98
CNC(=O)c1ccc(N2CCN(Cc3ccc4c(c3F)NC(=O)N3CC(F)(F)CN=C43)CC2)c(C)n1 [Compound 160] ... 70.7
CNC(=O)c1ccc(N2CCN(Cc3ccc4c(c3F)NC(=O)N3CCCN=C43)CC2)c(Cl)n1 [Compound 141] ... 92.6

Read the next record carefully.
Incoming: What value of measured bioavailability is listed for CNC(=O)c1ccc(N2CCN(Cc3ccc4c(c3F)NC(=O)N3C[C@@H](C)N=C43)CC2)c(F)n1 [Compound 132] ?
Outgoing: 98.7

====

# Lookup of reported Papp B→A at 2.5 h, 2 µM keyed by entry
Tested on: MDR1
assay-text: MDR1-MDCK II cell model of bidirectional permeability
Format: in vitro ADME
reported-conditions: dog, basolateral-to-apical, 2 µM, 2.5 h
Reply with just the number (in ×10⁻⁶ cm/s).

CNC(=O)c1ccc(N2CCN(Cc3ccc4c(c3F)NC(=O)N3CCCN=C43)CC2)c(F)n1 ... 21.8
CNC(=O)c1ccc(N2CCN(Cc3ccc4nc(C)c(=O)[nH]c4c3F)CC2)c(F)n1 ... 19.4
CNC(=O)c1ccc(N2CCN(Cc3ccc4c(c3F)NC(=O)N3C4=NC[C@@H]3C)CC2)c(Cl)n1 ... 21.1

Read the next record carefully.
Incoming: Value wanted: Papp B→A at 2.5 h, 2 µM (MDR1) of entry CNC(=O)c1ccc(N2CCN(Cc3ccc4c(c3F)NC(=O)N3C[C@@H](C)N=C43)CC2)c(Cl)n1
Outgoing: 22.8

====

tested-system: Recombinant human PARP1 protein (Homo sapiens)
assay-text: PARP1 enzymatic inhibitory activity, histone substrate, chemiluminescent ELISA
reported-conditions: PARP2 IC50 over PARP1 IC50
endpoint: PARP1/2 Fold selectivity

O=C(NC1CC1)c1ccc(N2CCN(Cc3ccc4c(c3F)NC(=O)N3CCCN=C43)CC2)c(F)n1 ... 299

a: C[C@@H]1CN2C(=O)Nc3c(ccc(CN4CCN(c5ccc(C(=O)NC6CC6)nc5Cl)CC4)c3F)C2=N1
b: CNC(=O)c1ccc(N2CCN(Cc3ccc4c(c3)NC(=O)N3CCCN=C43)CC2)c(Cl)n1
Incoming: Input pair: a , b . Output: entry with lower PARP1/2 Fold selectivity. Reply briefly: the label of your chosen item.
Outgoing: b
(b: 323, a: 1324)

====

assay-text: Preliminary pharmacokinetic test in mice
Assay type: in vivo
reported-conditions: male, ICR, po; mouse plasma, p.o. 5 mg/kg
Description: 1. Healthy ICR mice were administered the tested compounds intravenously (1 mg/kg) or by gavage (5 mg/kg). Nine male mice weighing 30-35 g for each route of administration were randomly divided into three groups of three mice each. […] The concentration of the compounds in mouse plasma was determined by LC/MS/MS. Pharmacokinetic parameters after administration were calculated using the […] of Phoenix 8.3 software (Pharsight, USA).
endpoint: AUC(0-t) (ng·h/mL)
Reply with just the number (in ng·h/mL).

CNC(=O)c1ccc(N2CCN(Cc3ccc4c(c3F)NC(=O)N3CC5(CC5)N=C43)CC2)c(Cl)n1 ... 11000
CNC(=O)c1ccc(N2CCN(Cc3ccc4c(c3F)NC(=O)N3CCCN=C43)CC2)c(F)n1 ... 13800
CNC(=O)c1ccc(N2CCN(Cc3ccc4c(c3F)NC(=O)N3C[C@@H](C)N=C43)CC2)c(F)n1 ... 33100
CNC(=O)c1ccc(N2CCN(Cc3ccc4c(c3F)NC(=O)N3C[C@@H](C)N=C43)CC2)c(Cl)n1 ... 22500
CNC(=O)c1ccc(N2CCN(Cc3ccc4c(c3F)NC(=O)N3CC(F)(F)CN=C43)CC2)c(C)n1 ... 26100

Incoming: What value of measured AUC(0-t) is listed for CNC(=O)c1ccc(N2CCN(Cc3ccc4c(c3F)NC(=O)N3CCCN=C43)CC2)c(Cl)n1 ?
Outgoing: 14000

====

tested-system: Recombinant human PARP1 protein (Homo sapiens, UniProt P09874)
assay-text: biochemical
pIC50: −log10 of the molar value.
endpoint: pIC50

CNC(=O)c1ccc(N2CCN(Cc3ccc4c(c3)[nH]c(=O)n3cc(C)nc43)CC2)c(F)n1 ... 9.30
CNC(=O)c1ccc(N2CCN(Cc3ccc4c(c3)[nH]c(=O)c3nn(C)cc34)CC2)c(F)n1 ... 9.10
CNC(=O)c1ccc(N2CCN(Cc3ccc4c(c3F)NC(=O)N3CC(F)(F)CN=C43)CC2)c(C)n1 ... 9.23
C[C@@H]1CN2C(=O)Nc3c(ccc(CN4CCN(c5ccc(C#N)cn5)CC4)c3F)C2=N1 ... 9.02
CNC(=O)c1ccc(N2CCN(Cc3ccc4c(c3F)NC(=O)N3C[C@@H](F)CN=C43)CC2)c(F)n1 ... 8.80
CNC(=O)c1ccc(N2CCN(Cc3ccc4c(c3F)NC(=O)N3C[C@H](C)N=C43)CC2)c(F)n1 ... 8.92
CNC(=O)c1ccc(N2CCN(Cc3ccc4c(c3F)NC(=O)N3CCN=C43)CC2)c(F)n1 ... 9.10
CNC(=O)c1ccc(N2CCN(C(C)c3ccc4c(c3)[nH]c(=O)c3cnn(C)c34)CC2)c(F)n1 (stereo not drawn) ... 8.44

I: CNC(=O)c1ccc(N2CCN(Cc3ccc4c([nH]c(=O)c5cnnn54)c3F)CC2)c(F)n1
II: CC(c1ccc2c([nH]c(=O)c3ccnn32)c1F)N1CCN(c2ccc(F)cc2F)CC1 (stereo not drawn)
Incoming: Returns: the argument ( I or II ) having the larger pIC50. Reply briefly: the label of your chosen item.
Outgoing: I

1: CNC(=O)c1ccc(N2CCN(Cc3ccc4c(c3F)NC(=O)N3CCN=C43)CC2)c(Cl)n1
2: CNC(=O)c1ccc(N2CCN(Cc3cc4c(cc3Cl)C3=NCCN3C(=O)N4)CC2)c(F)n1
Incoming: Returns: the argument ( 1 or 2 ) having the larger pIC50. Reply briefly: the label of your chosen item.
Outgoing: 1
(1: 8.89, 2: 8.02)

P: CNC(=O)c1ccc(N2CCN(Cc3ccc4c(c3F)NC(=O)N3C[C@H](C)N=C43)CC2)c(C)n1
Q: CCNC(=O)c1ccc(N2CCN(Cc3ccc4c(c3F)NC(=O)N3C[C@@H](C)N=C43)CC2)c(C)n1
R: CNC(=O)c1ccc(N2CCN(Cc3ccc4c(c3F)NC(=O)N3CC(F)(F)CN=C43)CC2)c(Cl)n1
S: CNC(=O)c1ccc(N2CCN(Cc3ccc4c(c3F)NC(=O)N3CC(C)(C)N=C43)CC2)c(F)n1
Incoming: Order the records so the highest pIC50 appears first and the lowest last. Give the labels in the order requested.
Outgoing: R, P, Q, S
(R: 9.33, P: 8.96, Q: 8.74, S: 7.95)

1: CNC(=O)c1ccc(N2CCN(Cc3ccc4c(c3F)NC(=O)N3CC(C)N=C43)CC2)c(F)n1 (stereo not drawn)
2: CCNC(=O)c1ccc(N2CCN(Cc3ccc4c(c3F)NC(=O)N3CCN=C43)CC2)c(F)n1
3: CNC(=O)c1ccc(N2CCN(Cc3ccc4c(c3)[nH]c(=O)c3cnn(C)c34)CC2)c(F)n1
4: O=C1Nc2c(ccc(CN3CCN(c4ccc(F)cc4F)CC3)c2F)C2=NCCCN12
5: CCNC(=O)c1ccc(N2CCN(Cc3ccc4c(c3F)NC(=O)N3CCCN=C43)CC2)c(F)n1
Incoming: Form: Sort by [pIC50] Order [ ascending ] Give the labels in the order requested.
Outgoing: 4, 2, 1, 5, 3
(4: 7.39, 2: 8.66, 1: 8.92, 5: 9.15, 3: 9.66)

I: O=C(NC1CC1)c1ccc(N2CCN(Cc3ccc4c(c3F)NC(=O)N3CCCN=C43)CC2)c(F)n1
II: CCNC(=O)c1ccc(N2CCN(Cc3ccc4c(c3F)NC(=O)N3C[C@@H](C)N=C43)CC2)c(Cl)n1
III: CNC(=O)c1ccc(N2CCN(Cc3ccc4c(c3F)NC(=O)N3C[C@@H](C)N=C43)[C@H](C)C2)c(Cl)n1
Incoming: Order the records so the highest pIC50 appears first and the lowest last. Give the labels in the order requested.
Outgoing: III, II, I

1: N#Cc1ccc(N2CCN(Cc3ccc4c(c3F)NC(=O)N3CCCN=C43)CC2)nc1
2: CNC(=O)c1ccc(OC2CCN(Cc3ccc4c(c3)[nH]c(=O)c3ccnn34)C2)cn1 (stereo not drawn)
Incoming: Returns: the argument ( 1 or 2 ) having the larger pIC50. Reply briefly: the label of your chosen item.
Outgoing: 1
(1: 8.81, 2: 7.78)
